# MEASUREMENT_DESCRIPTION: Selectivity index, ratio of CC50 for HEK293 cells to EC50 for antitrypanosomal activity against bloodstream form trypomastigotes of wild type Trypanosoma brucei brucei Lister 427
# Format: toxicity
# CONDITION_LABEL: human, read-out: Selectivity Index
OUTCOME_MEASURE: selectivity ratio
One number for each entry.

Record excerpt, results attached:
[[record]]
given_smiles = "Cc1cc(O)cc(O)c1C(=O)NCCCCCCCCCCCCCCOc1ccc(C(=N)N)cc1"
reported = 10.7

[[record]]
given_smiles = "Cc1cc(O)cc(O)c1C(=O)NCCCCCCCCCCCCCCOc1ccc(C(=N)NO)cc1"
reported = 6.9


Now let's try a different one.
Query: Any idea what its selectivity ratio is? The compound is `Cc1cc(O)cc(O)c1C(=O)NCCCCCCOc1ccc(C#N)cc1`
Response: 6.6

====

# Test system: Trypanosoma brucei brucei
# MEASUREMENT_DESCRIPTION: Antitrypanosomal activity against bloodstream form trypomastigotes of wild type Trypanosoma brucei brucei Lister 427 assessed as reduction in parasite viability by resazurin-based assay
# Format: functional, organism-based
OUTCOME_MEASURE: EC50 (nM)
One number for each entry, in nM.

Query: State the recorded EC50 for this entry: `Cc1cc(O)cc(O)c1C(=O)NCCCCCCCCCCCCOc1ccc(C2=NCCN2)cc1`
Response: 1700
